pIC50: −log10 of the molar value.
pIC50 data for Prostaglandin G/H synthase 1 (Homo sapiens) follow.
result-type: pIC50

smiles-code	recorded-value
CS(=O)(=O)c1ccc(-c2sc(-c3ccncc3)nc2-c2ccc(F)cc2)cc1	< 4.00
Cc1nc(-c2ccc(F)cc2)c(-c2ccc(S(C)(=O)=O)cc2)s1	< 5.00
CS(=O)(=O)c1ccc(-c2sc(CCc3ccccc3)nc2-c2ccc(F)cc2)cc1	< 4.00
CS(=O)(=O)c1ccc(-c2sc(-c3ccccc3)nc2-c2ccc(F)cc2)cc1	< 4.00
CS(=O)(=O)c1ccc(-c2sc(-c3ccccc3Cl)nc2-c2ccsc2)cc1	< 4.00
CS(=O)(=O)c1ccc(-c2sc(-c3ccccc3Cl)nc2-c2ccccc2F)cc1	< 4.00
COc1ccc(-c2nc(-c3ccc(F)cc3)c(-c3ccc(S(C)(=O)=O)cc3)s2)cc1	< 5.00
CS(=O)(=O)c1ccc(-c2sc(Cc3ccccc3)nc2-c2ccc(F)cc2)cc1	< 4.00
CCOC(=O)c1nc(-c2ccc(F)cc2)c(-c2ccc(S(C)(=O)=O)cc2)s1	< 4.00
CS(=O)(=O)c1ccc(-c2sc(-c3ccccc3Cl)nc2-c2ccc(F)cc2)cc1	< 4.00

----------
IC50 data for Prostaglandin G/H synthase 2 (Homo sapiens) follow.

smiles-code	unit-string	modifier	IC50
CS(=O)(=O)c1ccc(-c2sc(C(F)(F)F)nc2-c2ccc(F)cc2)cc1	nM	=	23
CS(=O)(=O)c1ccc(-c2sc(-c3ccccc3Cl)nc2-c2cc(F)ccc2F)cc1	nM	>	100000
Cc1nc(-c2ccc(F)cc2)c(-c2ccc(S(C)(=O)=O)cc2)s1	nM	=	110
CC(C)(C)c1nc(-c2ccc(F)cc2)c(-c2ccc(S(C)(=O)=O)cc2)s1	nM	=	110
COc1ccc(-c2nc(-c3ccc(F)cc3)c(-c3ccc(S(C)(=O)=O)cc3)s2)cc1	nM	=	270
CS(=O)(=O)c1ccc(-c2sc(-c3ccccc3Cl)nc2-c2ccccc2)cc1	nM	=	10
CS(=O)(=O)c1ccc(-c2sc(-c3ccccc3Cl)nc2-c2cccc(F)c2)cc1	nM	=	16
CS(=O)(=O)c1ccc(-c2nc(C(F)(F)F)sc2-c2ccc(F)cc2)cc1	nM	=	6
CS(=O)(=O)c1ccc(-c2sc(-c3ccccc3Cl)nc2-c2ccccc2F)cc1	nM	=	10
CS(=O)(=O)c1ccc(-c2sc(CCc3ccccc3)nc2-c2ccc(F)cc2)cc1	nM	=	32
CS(=O)(=O)c1ccc(-c2sc(Cc3ccccc3)nc2-c2ccc(F)cc2)cc1	nM	=	18
CS(=O)(=O)c1ccc(-c2sc(CC#N)nc2-c2ccc(F)cc2)cc1	nM	=	350
CS(=O)(=O)c1ccc(-c2sc(-c3cccnc3)nc2-c2ccc(F)cc2)cc1	nM	=	430

----------
# target-under-test: Prostaglandin G/H synthase 1 (Homo sapiens)
# Sequence (P23219 whole entry): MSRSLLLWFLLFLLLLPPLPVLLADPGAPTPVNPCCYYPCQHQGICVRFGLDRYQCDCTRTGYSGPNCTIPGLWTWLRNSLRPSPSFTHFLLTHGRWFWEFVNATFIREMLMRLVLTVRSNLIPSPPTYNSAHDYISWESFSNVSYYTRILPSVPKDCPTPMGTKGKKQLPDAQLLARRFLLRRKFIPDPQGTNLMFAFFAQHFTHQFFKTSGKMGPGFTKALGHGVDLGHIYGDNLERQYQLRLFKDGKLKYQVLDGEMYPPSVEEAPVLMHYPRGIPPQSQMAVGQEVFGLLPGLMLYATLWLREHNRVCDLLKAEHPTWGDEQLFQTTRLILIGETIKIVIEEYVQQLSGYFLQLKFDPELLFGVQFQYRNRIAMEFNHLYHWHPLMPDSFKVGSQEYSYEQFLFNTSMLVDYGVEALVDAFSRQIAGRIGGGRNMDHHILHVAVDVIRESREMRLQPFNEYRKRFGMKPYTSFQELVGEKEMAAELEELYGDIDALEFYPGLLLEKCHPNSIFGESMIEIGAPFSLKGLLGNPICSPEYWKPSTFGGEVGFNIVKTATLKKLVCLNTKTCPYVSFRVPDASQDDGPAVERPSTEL
pIC50: −log10 of the molar value.
Parameter pIC50: see the listing below.

smiles-code	pIC50
CS(=O)(=O)c1ccc(-c2sc(-c3cccs3)nc2-c2ccc(F)cc2)cc1	< 4.00
CS(=O)(=O)c1ccc(-c2sc(CC#N)nc2-c2ccc(F)cc2)cc1	< 4.00
CS(=O)(=O)c1ccc(-c2nc(-c3ccccc3)sc2-c2ccc(F)cc2)cc1	< 4.00
CS(=O)(=O)c1ccc(-c2sc(-c3cccnc3)nc2-c2ccc(F)cc2)cc1	< 3.00
CS(=O)(=O)c1ccc(-c2nc(C(F)(F)F)sc2-c2ccc(F)cc2)cc1	5.97
CC(C)(C)c1nc(-c2ccc(F)cc2)c(-c2ccc(S(C)(=O)=O)cc2)s1	< 4.00
